test: yeast display, Sf9 membrane polyspecificity reagent, FACS + sequencing; frameworks hold sequencing errors
reported.property: polyreactivity (PSR sort gate)

>>> observed_result("QVQLVESGGGLVQAGGSLRLSCAASGFTFAVNAMGWYRQAPGKERELVAAISKSGGRTYYADSVKGRFTISRDNAKNTVYLQMNSLKPEDTAVYYCAAEGPGYTYDYWGQGTQVTVSS")
"high polyreactivity"
>>> observed_result("QVQLVESGGGLVQAGGSLRLSCAASGYTFSHYAMGWYRQAPGKERELVAGITWSGGSTYYADSVKGRFTISRDYAKNTVYLQMNSLKPEDTSVYYCAAKYYWYYSYSGIPLFDYWGQGTQVTVSS")
"low polyreactivity"
>>> observed_result("QVQLVESGGGLVQAGGSLRLSCAASGIIFYGYAMGWYRQAPGKERELVAAITYSGGSTYYADSVKGRFTISRDNAKNTVYLQMNSLKPEDTAVYYCAAYDAYSPYQALYDYWGQGTQVTVSS")
"low polyreactivity"
>>> observed_result("QVQLVESGGGLVQAGGSLRLSCAATGGIFGYYSMGWYRQSPGKESELVAAINYSGGSTYYADSVKGRFTISRDNAKNTVYLQMNSLKPEDTAVYYCNAVVRDYTFRYYYWGQGTQVTVSS")
"low polyreactivity"
>>> observed_result("QVQLVESGGGLVKAGGSLRLSFAASGRIFRRYAMGWCGPAPGKEREFVAAITKSGGSTNYADSVKGRFTISRDNANNTVYLQMNSLKPEDTAVYYCATYPQFYFRYDYWGLGTQVTVSS")
"high polyreactivity"
>>> observed_result("QVQLVESAGGLVQAGGSLRLSCAASGFTFLYYAMGWYRKAPGKEREFVAAISYTGGSTYYADSVKGRFTISRDNAKNTVYLQMNSLKPEDTAVYYCAVDGYYWFGSIFDYWGQGTQVTVSS")
"low polyreactivity"
